# system-under-test: LbSOD (Leishmania braziliensis iron superoxide dismutase, FeSOD)
# Construct: recombinant from pETM11-LbSOD, 6xHis-tag removed by TEV protease (23 kDa)
# experiment-summary: Kd from concentration-response (FITC-labeled protein fluorescence / thermal shift)
# Type: binding
property-measured: pKd
Just the number, please; pKd means minus log10 of the concentration in mol/L.

Reported pKd, compound COc1cccc(C=Nc2nc(-c3ccc(Br)cc3)cs2)c1 : ____
2.21

###

# system-under-test: LbSOD (Leishmania braziliensis iron superoxide dismutase, FeSOD)
# Construct: recombinant from pETM11-LbSOD, 6xHis-tag removed by TEV protease (23 kDa)
# experiment-summary: Kd from concentration-response (FITC-labeled protein fluorescence / thermal shift); binding confirmed by ITC
property-measured: pKd
Just the number, please; pKd means minus log10 of the concentration in mol/L.

Test system LbSOD (Leishmania braziliensis iron superoxide dismutase, FeSOD); read-out pKd; what value for O=[N+]([O-])c1ccc(-c2csc(N=Cc3ccc(Br)c(Br)c3)n2)cc1 [Ju-480] ?
5.32
